Measured melting point of individual entries

chemical_string: CN(C)Cc1cc(Oc2ccc3c(C(=O)Nc4cccc(C(F)(F)F)c4)cccc3c2)ncn1
melting point: 180 to 181 °C
--
chemical_string: Nc1nccc(CCc2ccc3c(C(=O)Nc4cccc(C(F)(F)F)c4)cccc3c2)n1
melting point: 225 to 227 °C
--
chemical_string: Nc1nc(Cl)cc(Oc2ccc3c(C(=O)Nc4cccc(C(F)(F)F)c4)cccc3c2)n1
melting point: 234 to 236 °C
--
chemical_string: CN(C)CCNC(=O)c1cc(Oc2ccc3c(C(=O)Nc4cccc(C(F)(F)F)c4)cccc3c2)ccn1
melting point: 80 to 82 °C
--
chemical_string: Nc1cc(Sc2ccc3c(C(=O)Nc4cccc(C(F)(F)F)c4)cccc3c2)ncn1
melting point: 205 °C
--
chemical_string: Nc1cc(Oc2ccc3c(C(=O)Nc4cccc(C(F)(F)F)c4)cccc3c2)ccn1
melting point: 222 to 224 °C
--
chemical_string: CCCCOC(=O)c1cc(Oc2ccc3c(C(=O)Nc4cccc(C(F)(F)F)c4)cccc3c2)ccn1
melting point: 128 to 130 °C
--
chemical_string: NC(=O)c1cc(Oc2ccc3c(C(=O)Nc4cccc(C(F)(F)F)c4)cccc3c2)ccn1
melting point: 117 to 120 °C
